Where do the numbers come from? From the supplement of paper PMC7125110.

B1: glmS ribozyme (parent)
chain: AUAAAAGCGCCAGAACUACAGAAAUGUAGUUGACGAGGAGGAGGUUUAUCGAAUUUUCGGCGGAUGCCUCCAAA

Variants of: B1
procedure-text: self-cleavage kobs at 10000 uM GlcN6P; higher = faster cleavage; RNA array
condition-info: with glucosamine-6-phosphate
This sample holds only a part of the variants without activity.
Classification field: enter fulfilled for self-cleavage kobs at 10000 uM GlcN6P values not below 0.0009 s⁻¹, not fulfilled for values below it.

C8U U31C A39U G66C | not fulfilled
C10A A33U | not fulfilled
U31A G44C | not fulfilled
A39U | fulfilled
G13C C71U | not fulfilled
A12C G29U | fulfilled
C16A G51A | not fulfilled
G7U U31A G32U G41U A48U | not fulfilled
C10A A14G | not fulfilled
A14U G40A | fulfilled
A12U C16A U56A | fulfilled
G7U C10A A12U A36G C50G | not fulfilled
A14U A39C | fulfilled
U31C U49A A64U | not fulfilled
A14C A39U C67G | fulfilled
C16A G38A A48C | not fulfilled
A6G C34A A42U U54G | not fulfilled
A14U G51A | not fulfilled
G41A C71A | not fulfilled
C50G A53C C67G | not fulfilled
C11A A33G C50U C58U G59U G63A | not fulfilled
A36G U65G | not fulfilled
G32U U46G C61U | not fulfilled
G43C U45G | fulfilled
G13A A14G | fulfilled
A14C A52G U57G | not fulfilled
